# System: CEM cells HIV-1 protection, formazan growth assay
# procedureText: NCI AIDS Antiviral Assay
endpointLabel: EC50

# count of solved cases: 3
[Ni+2].[O-]/C(=N\N=C/c1ccc(C(F)(F)F)cc1)c1ccncc1.[O-]/C(=N\N=C\c1ccc(C(F)(F)F)cc1)c1ccncc1
> 100 µM
c1ccc(C(=C2C3CCC2C2CSCC32)c2ccccc2)cc1 (centres undefined)
> 93.3 µM
COc1c2occc2c(N=Cc2ccc([N+](=O)[O-])cc2)c2ccc(=O)oc12
> 34.7 µM

Report EC50 for COC(=O)[C@H](CCCN=C(N)N)NC(=O)CCCCCCCCCCNC(=O)c1cc(CNC2=NCCN2)cc(CNC2=NCCN2)c1 tested on CEM cells HIV-1 protection, formazan growth assay.
> 100 µM

----------
# Test system: CEM cells HIV-1 protection, formazan growth assay
# procedureText: NCI AIDS Antiviral Assay
pEC50: −log10 of the molar value.
Each entry below carries its recorded pEC50.

Consider the reported pEC50 for these compounds:
O=c1c(=[n+]2ccc(=C([O-])c3ccccc3)cc2)/c(=N/S(=O)(=O)c2ccccc2)c(=O)c2ccccc12
< 3.70
C[n+]1cc2c3c(ccc2c2ccc4cc5c(cc4c21)OCO5)OCO3
< 5.80
Cc1c(C(=O)NCCO)[n+](=O)c2cc(Cl)ccc2n1[O-]
< 3.08
Oc1ccc(O)c(-n2cccn2)c1
< 4.85
CCOc1cccc2cccnc12
< 3.70
CC(=O)C(C(C)=O)=C1CCCC(O)O1 (configuration not stated)
< 3.70
COc1ccc2c(c1OC)C(C=C(c1ccccc1)c1ccccc1)CN(C)C2 (configuration not stated)
< 4.03
c1ccc2c(c1)N=C(c1ccc3ccccc3c1)CC(c1cccc3ccccc13)S2 (configuration not stated)
< 5.60
CN(C)COC(=S)SC(=O)OCCCl
< 3.70
Cc1cnc([C@H]2CCC3[C@@H]4CC=C5C[C@@H](O)CC[C@]5(C)C4CC[C@@]32C)s1 (some centres not stated)
< 4.17

Any idea what pEC50 was measured for N#C/C(N)=C(\C#N)N=CNc1ccc(N)cc1 ?
< 3.70

Same question, Cc1[nH]nc2c1NC(=O)OC(C)C2 (configuration not stated) this time
3.88

----------
Reported IC50 values for a set of compounds
# System: CEM cells HIV-1 protection, formazan growth assay
# procedureText: NCI AIDS Antiviral Assay
# settings: measured here: growth of uninfected CEM cells

CCOC(=O)/C(Cl)=C1\SN(C(=O)OCC)N=C1C
10.7 µM
CCOC(=O)NC(=O)c1cn(C2OC(CO)C(O)C2O)c(=O)[nH]c1=O (stereo unspecified)
> 692 µM
COc1ccc(-c2oc3cc(OC)c(OC)c(O)c3c(=O)c2O)cc1O
1.05 µM
COc1ccc(-c2c3ccccc3c(-c3ccc(OCCCCCBr)cc3)c3ccccc23)cc1
> 2.75 µM
COc1ccc(/C=N/NC(=O)c2ccc(OCc3nc4ccccc4[nH]3)cc2)cc1
> 200 µM

Please look up its IC50: Cc1ccc2c(c1)Nc1ccccc1P2(=O)O
> 200 µM

Okay, and CC1C(=O)N(c2ccccc2)NC12CCCc1ccccc12 (stereo unspecified) ?
91.2 µM

Next compound up: N#CC(C(=O)CCCC(=O)Nc1ccc(Cl)cc1Cl)c1ccccc1 (stereo unspecified)
> 661 µM

----------
# Test system: CEM cells HIV-1 protection, formazan growth assay
# procedureText: NCI AIDS Antiviral Assay
# settings: measured here: growth of uninfected CEM cells
Consider the following molecules and their measured IC50 readings.

Completed entries (count: 5):
CN=S(=O)(c1ccccc1)c1ccccc1
> 200 µM
O=S(=O)(N=S(c1ccccc1)c1ccccc1)c1ccccc1
> 145 µM
O=C1C(=Cc2ccc(O)cc2)N=C(c2ccccc2)N1n1c(-c2ccccc2)nc2ccccc2c1=O
77.6 µM
O=C(O)c1ccccc1C(=O)OCC1CCCN2CCCCC12 (stereo unspecified)
> 151 µM
CC(C)(C)OC(=O)N1CCCC1C(=O)N1CCCC1C(=O)Oc1ccccc1 (stereo unspecified)
> 67.6 µM

So what does the record say about IC50 for O=c1[nH]nc(Cc2ccccc2)n1/N=C/c1ccccc1Cl ?
> 200 µM

# repeat for CC(=O)C(CN(Cc1ccccc1)Cc1ccccc1)C(c1ccccc1)c1c(O)c2ccccc2oc1=O (stereo unspecified)
> 100 µM

Also check CC(C)OP(=O)(OC(C)C)/C(I)=N/Nc1ccc([N+](=O)[O-])cc1
> 110 µM

Ok, now COc1ccccc1CO[C@]1(C)CNCC(C)(C)NC(=O)[C@@](C)(OCc2ccccc2OC)CNCC(C)(C)NC1=O
> 200 µM

Subsequent entry: CC(=O)Nc1nc(C#N)[nH]c1C#N
> 200 µM

All values here come from PubChem BioAssay AID179.
